biological target: Drosophila OR71a (Drosophila melanogaster, UniProt Q9VUK5); construct: expressed in transfected cells; test: Calcium ion fluorescence (GCaMP6) assay, OR71a stable HEK293 cell line; format: cell-based; details: OR71a cell line; cc. 100 µM; VUAA1-normalized response, mean of biological replicates
Sequence (Q9VUK5 whole entry, one chain of several, the tested form may be a part): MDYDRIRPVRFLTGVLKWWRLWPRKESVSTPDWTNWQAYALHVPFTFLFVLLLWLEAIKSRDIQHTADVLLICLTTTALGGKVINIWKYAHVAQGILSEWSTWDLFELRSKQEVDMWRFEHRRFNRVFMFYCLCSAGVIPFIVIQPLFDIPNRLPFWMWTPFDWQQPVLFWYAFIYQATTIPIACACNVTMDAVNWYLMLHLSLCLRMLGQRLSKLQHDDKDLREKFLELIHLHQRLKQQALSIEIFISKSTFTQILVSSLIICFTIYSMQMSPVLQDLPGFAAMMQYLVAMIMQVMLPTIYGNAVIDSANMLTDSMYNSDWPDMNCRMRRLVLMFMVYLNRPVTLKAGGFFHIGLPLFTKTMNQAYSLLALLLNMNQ
reported metric: Average response

Take a look at these entries with their results.
compound	reported metric	value reported
CCCCCC(=O)CC [3-octanone]	Average response	0.00
CC(=O)OCC(C)C [isobutyl acetate]	Average response	0.00
C=C(C)[C@H]1CC=C(C)CC1 [limonene]	Average response	0.00

Input C=C(C)[C@H]1CC=C(C)CC1 [(R)-(+)-limonene] . Output Average response: 0.00

----------
Target: Drosophila OR47a (Drosophila melanogaster, UniProt P81921)
Construct: expressed in transfected cells
Sequence (P81921 1-385): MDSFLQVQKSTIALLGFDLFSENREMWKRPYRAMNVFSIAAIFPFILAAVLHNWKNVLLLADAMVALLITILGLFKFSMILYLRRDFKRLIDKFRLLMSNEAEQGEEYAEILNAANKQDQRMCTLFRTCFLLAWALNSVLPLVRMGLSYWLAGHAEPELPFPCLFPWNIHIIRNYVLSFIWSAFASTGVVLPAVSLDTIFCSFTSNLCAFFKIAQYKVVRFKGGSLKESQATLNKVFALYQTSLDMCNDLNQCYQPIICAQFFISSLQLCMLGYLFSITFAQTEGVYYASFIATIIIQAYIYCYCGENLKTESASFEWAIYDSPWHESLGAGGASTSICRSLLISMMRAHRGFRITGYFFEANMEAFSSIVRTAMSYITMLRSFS
Sequence (Q9VNB5 1-486 partner): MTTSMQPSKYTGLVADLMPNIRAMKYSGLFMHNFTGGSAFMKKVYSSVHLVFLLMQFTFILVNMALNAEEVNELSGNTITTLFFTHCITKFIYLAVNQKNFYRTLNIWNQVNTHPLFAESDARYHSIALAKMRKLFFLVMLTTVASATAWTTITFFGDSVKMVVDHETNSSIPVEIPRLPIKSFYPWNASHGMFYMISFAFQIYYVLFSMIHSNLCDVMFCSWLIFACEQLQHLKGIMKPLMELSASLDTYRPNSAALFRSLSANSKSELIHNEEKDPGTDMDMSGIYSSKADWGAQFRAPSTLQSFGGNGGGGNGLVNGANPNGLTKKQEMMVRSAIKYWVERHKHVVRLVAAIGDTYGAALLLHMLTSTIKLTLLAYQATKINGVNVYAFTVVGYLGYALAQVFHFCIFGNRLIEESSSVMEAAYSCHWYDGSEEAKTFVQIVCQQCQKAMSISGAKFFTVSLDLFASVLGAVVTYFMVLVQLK
Assay: Calcium ion fluorescence (GCaMP6) assay, OR47a stable HEK293 cell line
Format: cell-based
Settings: OR47a cell line, VOC concentration 10 μM
Let's look at some compounds and their measured OR47a response (VUAA1-normalized) at 10 μM.
Please respond with just the number, no unit label.

Take a look at these entries with their results.
compound	value reported
Cc1ccc(C)cc1 [p-xylene]	0.00
Cc1ccccc1C [o-xylene]	0.00
CCCCCOC(C)=O [pentyl acetate]	0.85

The record that follows has no OR47a response (VUAA1-normalized) at 10 μM shown yet.
Test item CCCCCCCCCCC [undecane] ; Drosophila OR47a (Drosophila melanogaster, UniProt P81921); reported OR47a response (VUAA1-normalized) at 10 μM was 0.00
